The values you see were collected from patent US20200338203A1.

Reported Kd is given for each of the following binders.
# target-or-test-system: rat EphA2 (Rat, UniProt D3ZBN3 27-205)
# test-details: FP direct binding, selectivity
Numbered stars: 1 amine (or outer) side, 2 acyl side, 3 side chain; on linkers, the order of the positions; unused ones are H or OH. Bridge positions count the residues as written; N and C are the ends. Square brackets hold non-standard residues; d marks the D form. Ends that are not written are not given here. AlexaFluor488 = AlexaFluor488 fluorescent dye label; 1Nal = N[C@@H](Cc1cccc2ccccc12)C(=O)O; TBMB = c1c(C[*:1])cc(C[*:3])cc1C[*:2]; Gly(cPent) = N[C@H](C(=O)O)C1CCCC1; hArg = N=C(N)NCCCC[C@H](N)C(=O)O; Tle = CC(C)(C)[C@H](N)C(=O)O; AF488 = AlexaFluor488 label; Aib = CC(C)(N)C(=O)O; βAla = NCCC(=O)O; Sar = CNCC(=O)O

binder	Kd / nM
{AF488-βAla}-[Sar][Sar][Sar][Sar][Sar][Sar][Sar][Sar][Sar][Sar]H[dD][Gly(cPent)]PCP[1Nal]G[Aib]F[1Nal]CP[Tle]N[hArg]P[dD]C (linker 15-22-29 via TBMB) [Compound 147]	1.15
{AF488-βAla}-[Sar][Sar][Sar][Sar][Sar][Sar][Sar][Sar][Sar][Sar]H[dD]VPCPWGPFWCPVNRPGCA (linker 15-22-29 via TBMB, bicyclic peptide, fluorescent) [Compound 139]	0.36
{AlexaFluor488-βAla}-[Sar][Sar][Sar][Sar][Sar][Sar][Sar][Sar][Sar][Sar]ACPWGPFWCPVNRPGC (linker 12-19-26 via TBMB, bicyclic peptide, fluorescent) [Compound 68]	15.9
{AF488-βAla}-[Sar][Sar][Sar][Sar][Sar][Sar][Sar][Sar][Sar][Sar]H[dD]VPC[Aib][1Nal]G[Aib]F[1Nal]CP[Tle]NR[Aib][dD]C (linker 15-22-29 via TBMB) [Compound 141]	2.33
ACPWGPFWCPVNRPGC (N-terminal AlexaFluor488-G-Sar5 before the entry; three Cys cyclised on TBMB, bicyclic peptide, fluorescent) [Compound 67]	26.5
{AF488-βAla}-[Sar][Sar][Sar][Sar][Sar][Sar][Sar][Sar][Sar][Sar]H[dD]VPCP[1Nal]G[Aib]F[1Nal]CP[Tle]NR[Aib]GC (linker 15-22-29 via TBMB) [Compound 144]	1.25
ADVTCPWGPFWCPVNRPGCA (N-terminal Fl-G-Sar5 before the entry; three Cys cyclised on TBMB, bicyclic peptide, fluorescent) [Compound 18]	1.72
{AF488-βAla}-[Sar][Sar][Sar][Sar][Sar][Sar][Sar][Sar][Sar][Sar]H[dD]VPC[Aib][1Nal]G[Aib]F[1Nal]CP[Tle]N[hArg]P[dD]C (linker 15-22-29 via TBMB) [Compound 140]	1.57
{AF488-βAla}-[Sar][Sar][Sar][Sar][Sar][Sar][Sar][Sar][Sar][Sar]H[dD]VPCP[1Nal]G[Aib]F[1Nal]CP[Tle]NR[Aib][dD]C (linker 15-22-29 via TBMB) [Compound 145]	1
